# Test system: MCF7 breast
# method: NCI-60 one-dose screen, 48 h
# appliedConditions: 10 µM unless noted
This is part of a sample that, as a whole, favours compounds with a hit. Of some 83,000 tested, about 20% had one in any assay. Activity calls are given as the source filed them. Rule for the calls: active = growth percent below 10; inactive = the rest.
Please answer using one outcome listed in true (1) for active, false (0) for inactive

Input line: # outcome recorded in this test, key = Cc1ccc(C2CC(c3ccc(NC(=O)Nc4ccccc4)cc3)=NN2c2ccc(S(C)(=O)=O)cc2)cc1 (stereo unspecified)
Output line: true (1)

Input line: # outcome recorded in this test, key = Cc1ccc(C2CC(c3ccc(NC(=O)Nc4ccccc4)cc3)=NN2c2ccc(S(N)(=O)=O)cc2)cc1 (stereo unspecified)
Output line: true (1)

Input line: # outcome recorded in this test, key = CC(=O)Nc1ccc(S(=O)(=O)Nc2ccc(-c3ccc4c(c3)NC(=O)/C4=C\c3ccc[nH]3)cc2)cc1
Output line: false (0)

Input line: # outcome recorded in this test, key = O=C(c1ccc(O)cc1)C1[C@H](c2ccccc2Br)[C@@H](c2ccccc2)NC12C(=O)Nc1ccccc12 (stereo partly specified)
Output line: false (0)

Input line: # outcome recorded in this test, key = COc1cc(CNC(=O)C[C@H](C)CCC=C(C)C)ccc1OCc1cn(-c2ccc(Cl)c(Cl)c2)nn1
Output line: false (0)

Input line: # outcome recorded in this test, key = O=C(CSc1nnc(-c2ccc(-c3nc4ccc(Cl)cc4[nH]3)cc2)o1)Nc1ccc(Cl)cc1
Output line: false (0)
